Recorded AUC/dose values for a group of compounds are listed next.
System: Rhesus monkey
runDescription: Dose normalized total AUC in rhesus monkey at 2 mg/kg, po
Format: ADME, organism-based, Macaca mulatta
assayConditions: in vivo
Record the value in nM·h/mg/kg, omitting the unit from your answer.

O=C(Cn1ncccc1=O)Nc1ccc(C[C@@H]2CC[C@H]([C@H](O)c3ccccc3)N2)cc1 :: 820
O=C(Nc1ccc(C[C@@H]2CC[C@H]([C@H](O)c3ccccc3)N2)cc1)[C@@H]1CCc2nccc(=O)n21 :: 540
C[C@@H](C(=O)Nc1ccc(C[C@@H]2CC[C@H]([C@H](O)c3ccccc3)N2)cc1)n1ncccc1=O :: 300

Attention now shifts to the item below.
## Task AUC/dose lookup needed for `O=S(=O)(Nc1ccc(CCNC[C@H](O)c2cccnc2)cc1)c1ccc(-c2nc(-c3ccc(C(F)(F)F)cc3)cs2)cc1` , thanks.
## Result 50
